The measured values listed here are drawn from the supplement of paper PMC10567573.

B1: RTP4 (parent)
chain: TYWEHWTSQGQVRMRLFGQRCQKC

# Variants of: B1
# ASSAY: protein stability index of a GFP-peptide fusion (GPS, HEK-293T) (PSI 1-6); higher = more stable;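 note: lentivirally expressed fusions sorted by FACS into six bins by GFP to DsRed ratio, PSI derived from sequencing read proportions per bin multiplied by bin number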
# MEASUREMENT SETUP: c terminus: a fixed tail appended
Listed next: entries and their corresponding protein stability index.

{"VARIANT SPEC": "T1L", "protein stability index": 1.88}
{"VARIANT SPEC": "Q22N", "protein stability index": 1.71}
{"VARIANT SPEC": "C21R", "protein stability index": 2.4}
{"VARIANT SPEC": "L16P", "protein stability index": 2.13}
{"VARIANT SPEC": "Q9G", "protein stability index": 1.27}
{"VARIANT SPEC": "Q19K", "protein stability index": 1.8}
{"VARIANT SPEC": "S8A", "protein stability index": 3.23}
{"VARIANT SPEC": "Q19N", "protein stability index": 1.58}
{"VARIANT SPEC": "W6P", "protein stability index": 2.07}
{"VARIANT SPEC": "H5M", "protein stability index": 1.53}
{"VARIANT SPEC": "G10D", "protein stability index": 2.21}
{"VARIANT SPEC": "L16F", "protein stability index": 2.22}
{"VARIANT SPEC": "G18D", "protein stability index": 2.04}
{"VARIANT SPEC": "C21F", "protein stability index": 1.39}
{"VARIANT SPEC": "Q9N", "protein stability index": 2.08}
{"VARIANT SPEC": "T1D", "protein stability index": 1.82}
{"VARIANT SPEC": "R15C", "protein stability index": 3.05}
{"VARIANT SPEC": "G10S", "protein stability index": 2.39}
{"VARIANT SPEC": "R20P", "protein stability index": 1.78}
{"VARIANT SPEC": "M14A", "protein stability index": 2}
{"VARIANT SPEC": "G18M", "protein stability index": 1.36}
{"VARIANT SPEC": "Q11I", "protein stability index": 2.31}
